tested on: SK-MEL-2 melanoma; test: NCI-60 one-dose screen, 48 h; conditions: 10 µM unless noted
About 83,000 compounds went through this panel and 20% of them were active in at least one assay; those are over-represented in the sample as a whole. Calls of active or inactive are those of the source. The calls were made as follows: active = growth percent below 10; inactive = the rest.
Outcomes: active, inactive

In [3]: df
Out[3]:
                                   compound     group
0  Cc1ccc2c(c1)C(=O)/C(=C/c1cccc(OCC(=O)c3ccc(Cl)cc3)c1)CS2  inactive
1  CNC(=O)c1cc(Oc2ccc(NC(=O)Nc3ccc(Cl)c(SC)c3)c(F)c2)ccn1  inactive
2  Cc1cc(C)nc(SC2=C(Nc3cccc(Cl)c3)C(=O)N(Cc3ccccc3)C2=O)n1  inactive
3                  O=Nc1c(O)c(Cl)cc2ccccc12  inactive
4  COc1cc2c(cc1-c1c(C)noc1C)ncc1nc(C3CCC(F)(F)CC3)n([C@H](C)COC(F)F)c12  inactive
5  COc1ccc(S(=O)(=O)N2CCCCCC2)cc1NC(=O)c1[nH]c(C)c2c1CCCCC2=O  inactive
6   COc1cc2nc(N3CCCC3)nc(NCC3CCCCC3)c2cc1OC    active
7  COc1cc(/C=C/C(=O)c2c(C)oc3nc[nH]c(=O)c23)cc(OC)c1OC  inactive
8  CC(C)(C)c1cc(C(C)(C)C)cc(S(=O)(=O)Nc2cc3ccccc3cc2C(=O)NCCN)c1  inactive
9  CC(O)CN(CC(C)O)c1ccc2c(c1)Cc1cc([N+](=O)[O-])ccc1-2 (stereo not given)  inactive

---

system: SW-620 colon; assay: NCI-60 one-dose screen, 48 h (100 = growth as untreated, 0 = no growth, -100 = all killed); conditions: 10 µM unless noted
About 83,000 compounds went through this panel and 20% of them were active in at least one assay; those are over-represented in the sample as a whole.
Label Y when growth is strictly below 30%; otherwise label N.

                                   compound  group
0  O=C(/C=C/c1ccc(C(F)(F)F)cc1)Nc1ccc(C=C2c3ccccc3C(=O)c3ccccc32)cc1      N
1  O=S(=O)(Nc1ccc(I)cc1F)c1ccc(-c2cnc(C3CC3)o2)cc1      Y
2  O=C1/C(=C/c2ccc3c(c2)OCO3)SC(=S)N1CCc1ccc(O)cc1      N
3  CC(C)(C)c1cc(C(C)(C)C)cc(S(=O)(=O)Nc2cc3ccccc3cc2C(=O)NCCN)c1      Y
4  CCNC(=O)Oc1ccc(/C(=C(\C)c2ccc(Cl)cc2)c2ccc(OCCN3CCCCC3)cc2)cc1      Y
5  CCCCCCN(CCCCCC)CCC(O)c1ccc2ccccc2c1 (stereo not given)      N
6        CCCCCCN(CCCCCC)C(=N)c1ccnc2ccccc12      N
7  FC(F)(F)c1nc2c(NCc3ccc(-c4ccccc4)cc3)cccc2[nH]1      N

---

Each entry below lists one item and its recorded growth value.
test system: UACC-62 melanoma; experiment: NCI-60 one-dose screen, 48 h (100 = growth as untreated, 0 = no growth, -100 = all killed); conditions: 10 µM unless noted
About 83,000 compounds went through this panel and 20% of them were active in at least one assay; those are over-represented in the sample as a whole.
quantityKind: growth (%)

compound	quantityKind	uom	experimentalValue
Nc1n[nH]c2ccc([C@@H]3Nc4ccc5[nH]ncc5c4[C@H]4C5C=CC(C5)[C@@H]34)cc12 (some centres undefined)	growth	%	37.5
Cc1ccc2oc(=O)cc(C3c4ccc([nH]4)C(c4cc(=O)oc5ccc(C)cc45)c4ccc([nH]4)C(c4cc(=O)oc5ccc(C)cc45)c4ccc([nH]4)C(c4cc(=O)oc5ccc(C)cc45)c4ccc3[nH]4)c2c1 (centres undefined)	growth	%	-57
O=C(CN1C(=O)/C(=C/c2ccc(Cl)cc2)SC1=S)NCCCN1CCOCC1	growth	%	97
NC1=C(Cl)C(=O)c2ccc(S(N)(=O)=O)cc2C1=O	growth	%	-88
Nc1ccc(-c2cc3c(NCc4ccccc4)ncnc3s2)cc1	growth	%	71.8
CC(C)CSc1nc(N)nc2c1ncn2C1OC(CO)C(O)C1O (centres undefined)	growth	%	92.8
COc1ccc(C(=O)COc2ccc(/C=C3\COc4ccc(OC)cc4C3=O)cc2)cc1	growth	%	85.1
Cc1ccc2c(c1)C(=O)/C(=C/c1cccc(OCC(=O)c3ccc(Cl)cc3)c1)CS2	growth	%	76.2
COc1cc2c(cc1OC)C(Sc1ccc(SC)cc1)c1c(nc(N)c(C#N)c1N)O2 (centres undefined)	growth	%	-61.3

---

tested on: K-562 leukemia; test: NCI-60 one-dose screen, 48 h (100 = growth as untreated, 0 = no growth, -100 = all killed); details: 10 µM unless noted
About 83,000 compounds went through this panel and 20% of them were active in at least one assay; those are over-represented in the sample as a whole.
Class assignment keyed on growth, ranges Low (below -20%), Mid (-20% to below 70%), High (70% or more)

compound	group
c1ccc(-c2c(-c3ccccc3)[n+](Cc3ccc4ccccc4c3)c(-c3ccc(-c4nc5ccccc5s4)cc3)n2Cc2ccc3ccccc3c2)cc1	Low
O=C(O)c1c(=O)cccc2ssc12	Mid
CCN(CC)CCCCNc1c2ccc(Cl)cc2nc2ccc(OC)cc12	Mid
Cn1cccc1-c1nc2c3c(ccc2[nH]1)C(=O)c1ccccc1C3=O	High
COc1ccc(-c2cc(Nc3ccnc(N4CCOCC4)n3)on2)cc1	Mid
Cc1ccc2oc(=O)cc(C3c4ccc([nH]4)C(c4cc(=O)oc5ccc(C)cc45)c4ccc([nH]4)C(c4cc(=O)oc5ccc(C)cc45)c4ccc([nH]4)C(c4cc(=O)oc5ccc(C)cc45)c4ccc3[nH]4)c2c1 (centres undefined)	Low
Nc1ccn(-c2ccc(Br)cc2)c(=O)n1	High
NC1=C(Cl)C(=O)c2ccc(S(N)(=O)=O)cc2C1=O	Mid
Cc1ccc(OC(=O)c2ccc(Cl)cc2)cc1	High

---

tested on: A498 renal; assay: NCI-60 one-dose screen, 48 h (100 = growth as untreated, 0 = no growth, -100 = all killed); conditions: 10 µM unless noted
About 83,000 compounds went through this panel and 20% of them were active in at least one assay; those are over-represented in the sample as a whole. Active and inactive are the calls of the source. The calls were made as follows: active = growth percent below 10; inactive = the rest.
quantityKind: growth

>>> df
                                   compound  quantitykind          experimentalvalue
0  CC(=O)O[C@H]1CC[C@]2(C)[C@H]3CC=C4[C@@H]5CC(C)(C)CC[C@]5(C(=O)NCCNCCNCCN)CC[C@@]4(C)[C@]3(C)CC[C@H]2C1(C)C        growth           54.6% (inactive)
1   C#CCOc1ccc2ncnc(N3CCN(C(=O)CCl)CC3)c2c1        growth  110% [8.25 µM] (inactive)
2  CCN1CCC2(CC1)NC(=O)c1c(c3ccc(Cl)c(Cl)c3n1C)C2C#N (centres undefined)        growth             3.01% (active)
3  O=C1/C(=C/c2ccc(Cl)cc2)SC(=S)N1CCc1ccc(O)cc1        growth           87.6% (inactive)
4    NC(=O)c1cc(I)ccc1NC(=O)/C=C/c1ccccc1Cl        growth           62.4% (inactive)
5  O=C1NC(=O)C(c2ccc(Cl)cc2Cl)N1 (centres undefined)        growth           96.6% (inactive)
6  COc1ccc(/C=C/C(=O)c2ccc(O)c(CN3CCN(c4cc5c(cc4F)c(=O)c(C(=O)O)cn5C4CC4)CC3)c2)cc1        growth           -0.877% (active)
7  C=C1C(=O)O[C@H]2[C@H]1CC/C(C=Nc1ccc(C(F)(F)F)cc1N)=C\CC[C@@]1(C)O[C@@H]21        growth           46.8% (inactive)
8                        CCC(=O)c1ccc(Cl)s1        growth           98.4% (inactive)

---

system: A498 renal; experiment: NCI-60 one-dose screen, 48 h; conditions: 10 µM unless noted
Compounds without any hit were thinned out: in the full panel of roughly 83,000, 20% have a hit. Calls of active or inactive are those of the source. The calls were made as follows: active = growth percent below 10; inactive = the rest.
Outcomes: active, inactive

>>> print(df.to_string())
                                  cpdsmiles     group
0  C=CC(=O)Nc1cccc(Nc2nc(SC)nc(-c3cccc([N+](=O)[O-])c3)c2C#N)c1    active
1  COc1cc(Nc2cc(C)nc(N3CCN(c4ccnc5cc(Cl)ccc45)CC3)n2)cc(OC)c1    active
2    Cc1[nH]c(-c2cc(N)ccc2Cl)c2c1C(=O)CCCC2  inactive

---

tested on: HCT-116 colon; assay: NCI-60 one-dose screen, 48 h (100 = growth as untreated, 0 = no growth, -100 = all killed); settings: 10 µM unless noted
About 83,000 compounds went through this panel and 20% of them were active in at least one assay; those are over-represented in the sample as a whole.
quantityKind: growth (%)

In [3]: df
Out[3]:
                                  cpdsmiles  experimentalvalue
0  CC(=O)O[C@H]1CC[C@]2(C)[C@H]3CC=C4[C@@H]5CC(C)(C)CC[C@]5(C(=O)NCCNCCNCCN)CC[C@@]4(C)[C@]3(C)CC[C@H]2C1(C)C              -80.8
1                   O=C(O)c1c(=O)cccc2ssc12               2.36
2  O=C1c2cc3c(cc2-c2c1c1ccc(F)cc1c(=O)n2C[C@H](O)[C@@H](O)[C@H](O)CO)OCO3                9.8
3  CCCOc1cc2ccccc2cc1C(=O)Nc1nc(NC)c2c(ccc3nccc32)[nH]1              -72.3

Values were extracted from PubChem BioAssay (NCI).
